- Assay system: T1, cyno CD137 (cynomolgus monkey, UniProt Q07011 24-186 (human entry), limits assumed)
- T1 construct: also called cynomolgus monkey CD137
- T1 chain: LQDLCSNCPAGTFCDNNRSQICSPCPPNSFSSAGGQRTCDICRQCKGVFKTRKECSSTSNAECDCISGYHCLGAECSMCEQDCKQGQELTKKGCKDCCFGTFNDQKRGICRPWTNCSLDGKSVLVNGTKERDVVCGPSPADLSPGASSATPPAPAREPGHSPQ
- Experiment: SPR Biacore T200, IgG captured on protein A, 25 C;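 note: antigens diluted in ACES running buffer at pH 7.4 were flowed over antibodies held on a CM3 chip bearing amine-coupled protein A, with buffer alone serving as blank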
// values below are reported Kd
Give the value, in units of µM, as a plain number.

dBBDu186/L106 (antibody, V domains shown, IgG format; constant regions not specified) VH: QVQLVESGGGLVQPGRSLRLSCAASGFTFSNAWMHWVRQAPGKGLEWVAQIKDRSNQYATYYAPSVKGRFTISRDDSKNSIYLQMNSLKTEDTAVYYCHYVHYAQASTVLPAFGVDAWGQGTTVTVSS VL: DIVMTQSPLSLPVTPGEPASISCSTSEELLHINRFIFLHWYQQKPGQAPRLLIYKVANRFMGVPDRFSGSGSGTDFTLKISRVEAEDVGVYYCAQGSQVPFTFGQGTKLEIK
61.3
dBBDu183/L063 (antibody, V domains shown, IgG format; constant regions not specified) VH: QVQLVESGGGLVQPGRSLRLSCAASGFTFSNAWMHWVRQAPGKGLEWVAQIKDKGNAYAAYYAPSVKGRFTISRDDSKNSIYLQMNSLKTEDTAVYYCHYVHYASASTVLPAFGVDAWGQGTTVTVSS VL: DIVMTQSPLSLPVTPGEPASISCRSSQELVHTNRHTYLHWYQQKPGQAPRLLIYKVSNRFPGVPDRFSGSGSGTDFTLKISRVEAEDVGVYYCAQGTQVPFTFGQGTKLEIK
3.12

Task: Please give the measured Kd for this binder: dBBDu189/L126 (antibody, V domains shown, IgG format; constant regions not specified) VH: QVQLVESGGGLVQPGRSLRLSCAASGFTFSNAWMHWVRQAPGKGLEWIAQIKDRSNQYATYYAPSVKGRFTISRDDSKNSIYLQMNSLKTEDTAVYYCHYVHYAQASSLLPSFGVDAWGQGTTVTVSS VL: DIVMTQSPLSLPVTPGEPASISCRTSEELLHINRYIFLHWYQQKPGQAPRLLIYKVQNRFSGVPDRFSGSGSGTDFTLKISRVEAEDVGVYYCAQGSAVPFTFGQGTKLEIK
Output: 3.06
